This collection of values is drawn from BindingDB's records for doi:10.1021/acs.jmedchem.5b00659.

subject of test: Signal transducer and activator of transcription 3 (Homo sapiens, UniProt P40763)
Sequence (P40763 whole entry): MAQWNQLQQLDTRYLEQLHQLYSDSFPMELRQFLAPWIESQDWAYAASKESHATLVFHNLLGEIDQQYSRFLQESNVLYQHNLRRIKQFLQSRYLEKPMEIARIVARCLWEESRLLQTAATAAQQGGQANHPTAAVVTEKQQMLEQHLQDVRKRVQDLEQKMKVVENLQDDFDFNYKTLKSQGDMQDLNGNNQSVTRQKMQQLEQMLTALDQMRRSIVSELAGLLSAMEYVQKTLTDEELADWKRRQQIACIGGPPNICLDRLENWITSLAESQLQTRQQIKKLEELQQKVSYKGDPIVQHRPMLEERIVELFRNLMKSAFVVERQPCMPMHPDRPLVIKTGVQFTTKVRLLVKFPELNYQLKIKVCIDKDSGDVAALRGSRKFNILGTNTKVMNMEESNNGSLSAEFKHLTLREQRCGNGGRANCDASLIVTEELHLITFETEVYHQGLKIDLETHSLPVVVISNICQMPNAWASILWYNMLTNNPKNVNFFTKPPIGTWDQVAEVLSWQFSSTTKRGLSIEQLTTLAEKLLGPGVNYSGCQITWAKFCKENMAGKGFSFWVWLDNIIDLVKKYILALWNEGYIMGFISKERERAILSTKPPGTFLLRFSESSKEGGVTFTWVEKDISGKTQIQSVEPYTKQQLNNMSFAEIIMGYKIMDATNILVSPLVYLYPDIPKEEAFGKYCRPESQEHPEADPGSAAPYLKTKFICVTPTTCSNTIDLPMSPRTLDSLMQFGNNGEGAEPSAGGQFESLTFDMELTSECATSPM
procedure details: Inhibition of STAT3 tyrosine phosphorylation in human A549 cells by sandwich ELISA method
quantity kind: pIC50
Keep in mind that pIC50 stands for -log10 of concentration in molar terms.

Briefly, pIC50 measured for COc1ccc(S(=O)(=O)Nc2ccccc2-c2ccc(F)c(F)c2)cc1 : 5.56
